Values of pIC50 for IRE1a (Homo sapiens, UniProt O75460), collected from a number of published sources:
pIC50: −log10 of the molar value.

Solved entries (count: 8):
>  <molecule>
CC(=O)NC1CCN(c2ccc3ccc(O)c(C=O)c3c2)C1 (stereo not drawn)

>  <pIC50>
< 6.00

$$$$
>  <molecule>
CCc1nc(NS(=O)(=O)c2ccccc2Cl)ccc1-c1cc(CC)c2nc(N[C@H]3CC[C@H](N(C)C)CC3)ncc2c1

>  <pIC50>
≥ 8.30

$$$$
>  <molecule>
COc1nc(NS(=O)(=O)c2ccc(F)c(F)c2Cl)ccc1/C=C/c1cnc(NC2CCC(N(C)C)CC2)nc1 (stereo not drawn)

>  <pIC50>
≥ 9.00

$$$$
>  <molecule>
O=Cc1c(O)ccc2cc(N3CCN(Cc4cccnc4)CC3)ccc12

>  <pIC50>
> 6.00

$$$$
>  <molecule>
O=Cc1c(O)ccc2cc(CCC(=O)O)ccc12

>  <pIC50>
> 6.00

$$$$
>  <molecule>
N[C@H]1CCC[C@@H](Nc2ncc3cc(-c4ccc(NS(=O)(=O)c5ccccc5Cl)c(F)c4)ccc3n2)C1

>  <pIC50>
≥ 8.30

$$$$
>  <molecule>
CCc1cc(-c2cc(OC)c(NS(=O)(=O)c3ccccc3Cl)nn2)cc2cnc(N[C@H]3CC[C@H](N)CC3)nc12

>  <pIC50>
≥ 8.30

$$$$
>  <molecule>
Cc1c(F)c(NS(=O)(=O)CC(F)(F)F)c2ccccc2c1Oc1ncccc1-c1ccnc(N[C@H]2CCCNC2)n1

>  <pIC50>
8.02

$$$$

Attention now shifts to the item below.
Which pIC50 is reported for this molecule? Cc1ccc(F)c(S(=O)(=O)Nc2cc(F)c(-c3nn(C(C)C)c4c3c(N)ncc4[C@H]3CC[C@H](N4CCOCC4)CC3)cc2F)c1
8.68
